src = patent US20100047371A1

test system: Human Oral Mucosa Explant Tissues; assay: Effect of final gel pH on anthocyanin uptake into human oral mucosa explant tissues; assay type: in vitro ADME; conditions: explant sample 003; 10% w/w FBR gel
readout name: Anthocyanin uptake, Gel pH 6.5 (pmol per mg tissue)
One number for each entry, in pmol per mg tissue.

// solved cases for Anthocyanin uptake, Gel pH 6.5 follow
molecule	display unit	numeric value
OC[C@H]1O[C@@H](Oc2cc3c(O)cc(O)cc3[o+]c2-c2ccc(O)c(O)c2)[C@H](O[C@@H]2OC[C@@H](O)[C@H](O)[C@H]2O)[C@@H](O)[C@@H]1O.[Cl-] [Cyanidin 3-sambubioside, cyanidin 3-sambubioside]	pmol per mg tissue	1.4
C[C@@H]1O[C@@H](OC[C@H]2O[C@@H](Oc3cc4c(O)cc(O)cc4[o+]c3-c3ccc(O)c(O)c3)[C@H](O)[C@@H](O)[C@@H]2O)[C@H](O)[C@H](O)[C@H]1O [cyanidin 3-rutinoside]	pmol per mg tissue	29.2
CC1OC(OCC2OC(Oc3cc4c(O)cc(O)cc4[o+]c3-c3ccc(O)c(O)c3)C(OC3OCC(O)C(O)C3O)C(O)C2O)C(O)C(O)C1O (stereo not shown) [cyanidin 3-xylosylrutinoside]	pmol per mg tissue	6.4

We next turn to a different molecule, shown below.
Record summary for OC[C@H]1O[C@@H](Oc2cc3c(O)cc(O)cc3[o+]c2-c2ccc(O)c(O)c2)[C@H](O)[C@@H](O)[C@@H]1O [cyanidin 3-glucoside] : reported Anthocyanin uptake, Gel pH 6.5 = 12.0
